Taken from patent US20250195513A1.

Biological target: IRAK4 (Homo sapiens)
Construct: endogenous in cells; host or cells: Karpas299
Sequence (Q9NWZ3 1-460): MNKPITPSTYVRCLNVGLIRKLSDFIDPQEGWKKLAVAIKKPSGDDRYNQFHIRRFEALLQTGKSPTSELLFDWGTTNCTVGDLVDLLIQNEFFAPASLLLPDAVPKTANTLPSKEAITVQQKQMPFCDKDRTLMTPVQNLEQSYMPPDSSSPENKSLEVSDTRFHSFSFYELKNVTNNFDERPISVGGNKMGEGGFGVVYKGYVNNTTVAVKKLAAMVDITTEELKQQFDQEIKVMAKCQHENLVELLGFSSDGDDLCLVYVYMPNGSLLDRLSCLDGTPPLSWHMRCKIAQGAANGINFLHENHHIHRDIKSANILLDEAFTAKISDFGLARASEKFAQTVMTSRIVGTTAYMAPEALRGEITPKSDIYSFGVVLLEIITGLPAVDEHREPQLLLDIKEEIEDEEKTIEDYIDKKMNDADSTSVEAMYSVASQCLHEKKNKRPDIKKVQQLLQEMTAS
Assay: IRAK4 Degradation Assay with Human Serum (Karpas299, HTRF/TR-FRET)
Assay type: cell-based
Conditions: Karpas-299 in human serum, 24 hrs treatment; read-out: IRAK4 degradtion with human serum assay DC50
metric: log10 DC50 (log10 of the value in nM)
The figures below represent log10 of DC50, where DC50 is stated in nM.

C[C@H]1CN(C2CN(c3cc(F)c([C@H]4CCC(=O)NC4=O)c(F)c3)C2)CCN1[C@H]1CC[C@H](n2cc3cc(NC(=O)c4ccc5cc(C#N)cnn45)c(C(C)(C)O)cc3n2)CC1 = 0.95
COC[C@@H]1CN(C(=O)C2CN(c3cc(F)c([C@H]4CCC(=O)NC4=O)c(F)c3)C2)CCN1[C@H]1CC[C@H](n2cc3cc(NC(=O)c4ccc5cc(C#N)cnn45)c(C(C)(C)O)cc3n2)CC1 = 1.54
COc1cc2nn([C@H]3CC[C@H](N4CCN(C(=O)C5CN(c6cc(F)c([C@H]7CCC(=O)NC7=O)c(F)c6)C5)CC4)CC3)cc2cc1C(=O)Nc1cnn2cccnc12 = 0.43
COc1cc(N2CC[C@@H](C(=O)N3CCN([C@H]4CC[C@H](n5cc6cc(NC(=O)c7ccc8cc(C#N)cnn78)c(C(C)(C)O)cc6n5)CC4)CC3)C2)cc(F)c1N1CCC(=O)NC1=O = 1.60
COC[C@H]1CN([C@H]2CC[C@H](n3cc4cc(NC(=O)c5ccc6cc(C#N)cnn56)c(C(C)(C)O)cc4n3)CC2)CCN1C1CCN(c2cc(F)c([C@H]3CCC(=O)NC3=O)c(F)c2)CC1 = 1.40

Prompt: // Input: `C[C@@H]1CN(C2CCN(c3cc(F)c([C@H]4CCC(=O)NC4=O)c(F)c3)CC2)CCN1[C@H]1CC[C@H](n2cc3cc(NC(=O)c4ccc5cc(C#N)cnn45)c(C(C)(C)O)cc3n2)CC1` . Output its log10 DC50 only.
Completion: 0.51

Prompt: Look up log10 DC50 of `COC[C@H]1CN(C2CCN(c3cc(F)c([C@H]4CCC(=O)NC4=O)c(F)c3)CC2)CCN1[C@H]1CC[C@H](n2cc3cc(NC(=O)c4ccc5cc(C#N)cnn45)c(C(C)(C)O)cc3n2)CC1` and report it.
Completion: 1.36

Prompt: Supply reported log10 DC50 belonging to this compound: `C[C@@H]1CN(C2CN(c3cc(F)c([C@H]4CCC(=O)NC4=O)c(F)c3)C2)CCN1[C@H]1CC[C@H](n2cc3cc(NC(=O)c4ccc5cc(C#N)cnn45)c(C(C)(C)O)cc3n2)CC1`
Completion: 0.94

Prompt: Look up and state reported log10 DC50 for `CC(C)(O)c1cc2nn([C@H]3CC[C@H](N4CCN(CCc5cc(F)c([C@H]6CCC(=O)NC6=O)c(F)c5)CC4)CC3)cc2cc1NC(=O)c1ccc2cc(Br)cnn12`
Completion: 2.64

Prompt: Indicate its recorded log10 DC50; the compound in question is `CC(C)(O)c1cc2nn([C@H]3C[C@H](N4CCN(C5CCN(c6cc(F)c([C@H]7CCC(=O)NC7=O)c(F)c6)CC5)CC4)C3)cc2cc1NC(=O)c1ccc2cc(C#N)cnn12`
Completion: 1.00

----------
Biological target: IRAK4 (Homo sapiens, UniProt Q9NWZ3)
Construct: endogenous in cells; host or cells: Karpas299
Sequence (Q9NWZ3 1-460): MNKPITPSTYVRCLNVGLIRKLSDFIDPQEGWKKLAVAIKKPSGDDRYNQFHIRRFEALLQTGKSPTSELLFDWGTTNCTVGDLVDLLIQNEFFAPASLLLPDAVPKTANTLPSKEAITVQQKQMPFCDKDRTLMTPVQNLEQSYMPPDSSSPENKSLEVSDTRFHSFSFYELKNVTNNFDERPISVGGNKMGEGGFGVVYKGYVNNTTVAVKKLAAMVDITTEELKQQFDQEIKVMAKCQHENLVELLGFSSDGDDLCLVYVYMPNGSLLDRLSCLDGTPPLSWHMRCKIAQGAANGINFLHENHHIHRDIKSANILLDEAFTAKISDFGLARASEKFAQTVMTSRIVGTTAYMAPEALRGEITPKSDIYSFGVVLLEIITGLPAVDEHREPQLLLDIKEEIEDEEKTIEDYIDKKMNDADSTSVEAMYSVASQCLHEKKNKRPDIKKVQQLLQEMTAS
Test: IRAK4 Degradation Assay (Karpas299, HTRF/TR-FRET)
Assay type: cell-based
Details: Karpas-299 cells, 24 h treatment; read-out: IRAK4 in Karpas-299 (24 h) DC50
Measured DC50 accompanies every entry in the list below.
Write down the numeric answer in nM and omit the unit.

COC[C@H]1CN([C@H]2CC[C@H](n3cc4cc(NC(=O)c5ccc6cc(C#N)cnn56)c(C(C)(C)O)cc4n3)CC2)CCN1C(=O)[C@@H]1CCN(c2cc(F)c([C@H]3CCC(=O)NC3=O)c(F)c2)C1 = 0.3
COC[C@@H]1CN(C2CN(c3cc(F)c([C@H]4CCC(=O)NC4=O)c(F)c3)C2)CCN1[C@H]1CC[C@H](n2cc3cc(NC(=O)c4ccc5cc(C#N)cnn45)c(C(C)(C)O)cc3n2)CC1 = 0.9

Next:
Prompt: Using the record for `CC(C)(O)c1cc2nn([C@H]3C[C@H](N4CCN(C5CN(c6cc(F)c([C@H]7CCC(=O)NC7=O)c(F)c6)C5)CC4)C3)cc2cc1NC(=O)c1ccc2cc(C#N)cnn12` , state its measured DC50.
Completion: 3.7

----------
target: IRAK4 (Homo sapiens); construct: endogenous in cells; host or cells: Karpas299; assay: IRAK4 Degradation Assay (Karpas299, HTRF/TR-FRET); type: cell-based; details: Karpas-299 cells, 24 h treatment; maximum percentage of degradation; read-out: IRAK4 in Karpas-299 (24 h) Dmax (%)
The reader will find reported Dmax values listed item by item below.
I only need the number, in %, no unit after it.

Prompt: Please list Dmax recorded for the molecule CC(C)(O)c1cc2nn([C@H]3CC[C@H](N4CCN(CC5CN(c6cc(F)c([C@H]7CCC(=O)NC7=O)c(F)c6)C5)CC4)CC3)cc2cc1NC(=O)c1ccc2cc(C#N)cnn12 [Example 290]
Completion: 98

Prompt: Check the records and state Dmax for C[C@H]1CN(C2CN(c3cc(F)c([C@H]4CCC(=O)NC4=O)c(F)c3)C2)CCN1[C@H]1CC[C@H](n2cc3cc(NC(=O)c4ccc5cc(C#N)cnn45)c(C(C)(C)O)cc3n2)CC1 [Example 308]
Completion: 97

Prompt: Supply measured Dmax of CC(C)(O)c1cc2nn(C3CCC4(CC3)CCN(C3CN(c5cc(F)c([C@H]6CCC(=O)NC6=O)c(F)c5)C3)CC4)cc2cc1NC(=O)c1ccc2cc(C#N)cnn12 [Example 428] in your reply.
Completion: 93

----------
Quick list: Dmax per entry.
Biological target: IRAK4 (Homo sapiens, UniProt Q9NWZ3)
Construct: endogenous in cells; host or cells: Karpas299
Sequence (Q9NWZ3 1-460): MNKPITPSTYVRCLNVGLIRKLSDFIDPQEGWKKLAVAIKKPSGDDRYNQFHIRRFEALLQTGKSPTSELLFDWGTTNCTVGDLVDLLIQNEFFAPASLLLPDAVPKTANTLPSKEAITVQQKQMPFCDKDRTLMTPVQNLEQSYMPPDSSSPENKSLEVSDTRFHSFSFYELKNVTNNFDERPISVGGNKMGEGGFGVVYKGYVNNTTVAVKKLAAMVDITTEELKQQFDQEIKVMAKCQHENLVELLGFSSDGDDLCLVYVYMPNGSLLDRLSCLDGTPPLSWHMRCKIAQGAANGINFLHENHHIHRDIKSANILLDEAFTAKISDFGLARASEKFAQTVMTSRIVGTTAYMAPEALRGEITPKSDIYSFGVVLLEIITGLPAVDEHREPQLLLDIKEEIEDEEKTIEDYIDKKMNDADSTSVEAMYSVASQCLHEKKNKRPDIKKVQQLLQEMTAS
Assay: IRAK4 Degradation Assay with Human Serum (Karpas299, HTRF/TR-FRET)
Type: cell-based
Settings: Karpas-299 in human serum, 24 hrs treatment; read-out: IRAK4 degradtion with human serum assay Dmax (%)
Numbers only here, please. The scale is %.

# annotated cases, reported Dmax shown
CC(C)(O)c1cc2nn([C@H]3CC[C@H](N4CCN(C(=O)C5CN(c6cc(F)c(N7CCC(=O)NC7=O)c(F)c6)C5)CC4)CC3)cc2cc1NC(=O)c1ccc2cc(C#N)cnn12 = 98
CC(C)(O)c1cc2nn([C@H]3CC[C@H](CN4CCN(CCNc5cccc6c5C(=O)N(C5CCC(=O)NC5=O)C6=O)CC4)CC3)cc2cc1NC(=O)c1ccc2cc(C#N)cnn12 (stereo partly shown) = 96
COc1cc(N2CC(C(=O)N3CCN([C@H]4CC[C@H](n5cc6cc(NC(=O)c7ccc8cc(C#N)cnn78)c(C(C)(C)O)cc6n5)CC4)CC3)C2)cc(F)c1N1CCC(=O)NC1=O = 98
COc1cc2nn([C@H]3CC[C@H](N4CCN(CCc5cc(F)c([C@H]6CCC(=O)NC6=O)c(F)c5)CC4)CC3)cc2cc1NC(=O)c1ccc2cc(C#N)cnn12 = 89
CC(C)(O)c1cc2nn([C@H]3CC[C@H](N4CCN(C5CCN(c6ccc7c(c6)C(=O)N(C6CCC(=O)NC6=O)C7=O)CC5)CC4)CC3)cc2cc1NC(=O)c1ccc2cc(C#N)cnn12 (stereo partly shown) = 98
CCc1cc(N2CC(C(=O)N3CCN([C@H]4CC[C@H](n5cc6cc(NC(=O)c7ccc8cc(C#N)cnn78)c(C(C)(C)O)cc6n5)CC4)CC3)C2)ccc1N1CCC(=O)NC1=O = 97
COC[C@H]1CN([C@H]2CC[C@H](n3cc4cc(NC(=O)c5ccc6cc(C#N)cnn56)c(C(C)(C)O)cc4n3)CC2)CCN1C(=O)C1CN(c2cc(F)c([C@H]3CCC(=O)NC3=O)c(F)c2)C1 = 100
C[C@H]1CN(C(=O)C2CN(c3cc(F)c([C@H]4CCC(=O)NC4=O)c(F)c3)C2)CCN1[C@H]1CC[C@H](n2cc3cc(NC(=O)c4ccc5cc(C#N)cnn45)c(C(C)(C)O)cc3n2)CC1 = 97
C[C@@H]1CN(C2CN(c3cc(F)c([C@H]4CCC(=O)NC4=O)c(F)c3)C2)CCN1[C@H]1CC[C@H](n2cc3cc(NC(=O)c4ccc5cc(C#N)cnn45)c(C(C)(C)O)cc3n2)CC1 = 96

--- query ---
Prompt: State, for IRAK4 (Homo sapiens, UniProt Q9NWZ3), measured Dmax of the compound listed here: `CC(C)(O)c1cc2nn([C@H]3C[C@H](N4CCN(C(=O)C5CN(c6cc(F)c([C@H]7CCC(=O)NC7=O)c(F)c6)C5)CC4)C3)cc2cc1NC(=O)c1ccc2cc(C#N)cnn12`
Completion: 99
